Values from PubChem BioAssay (NCI)

system: UO-31 renal; assay: NCI-60 one-dose screen, 48 h; conditions: 10 µM unless noted
About 83,000 compounds went through this panel and 20% of them were active in at least one assay; those are over-represented in the sample as a whole. The source made the active and inactive calls. How the source made its calls: active means growth percent below 10; inactive means the rest.
Classes used: True for active, False for inactive

compound=COc1ccc2c(c1)c(-c1nc(-c3cn(C)c4ncccc34)cs1)cn2CCN1CCOCC1 category_label=True
compound=CCCCCCCCCCCCCCCCCCOc1ccccc1COP(=O)(O)OOCC[N+](C)(C)C category_label=False
compound=COc1ccc(S(=O)(=O)Nc2c(/C=C\c3cc(OC)c(OC)c(OC)c3)ccc(OC)c2O)cc1OC category_label=False
compound=COC(=O)[C@@H](C)C[C@H](Cc1ccccc1)NC(=O)c1nc([C@@H](C[C@H](C(C)C)N(C)C(=O)[C@@H](NC(=O)[C@H]2CCCN2C)C(C)C)OC(C)=O)sc1C category_label=False
compound=CC(=O)OCC1O[C@@H]([S-])C(OC(C)=O)[C@H](OC(C)=O)[C@@H]1OC(C)=O.[Au+].c1ccc(CN2[CH-]N(Cc3ccccc3)C(c3ccccc3)=C2c2ccccc2)cc1 category_label=False
compound=CS(=O)(=O)CCN1CC2CCCC(C2)C1 category_label=False
compound=O=C(Nc1ccncc1F)c1cn(CC2CC2)c2ccccc12 category_label=False
compound=COc1cc2c(cc1OCCCCn1c(-c3cccs3)nc3ccccc31)N=C[C@@H]1CCCN1C2=O category_label=True
compound=Cn1cc(-c2csc(-c3cn(CCN4CCOCC4)c4ccc(F)cc34)n2)c2cccnc21 category_label=False
compound=COc1ccc(/C=C\c2cc(OC)c(OC)c(OC)c2)cc1NC(=O)/C=C/c1cc(OC)c(OC)c(OC)c1 category_label=False
compound="CC12CCC3C(CCC4=CC(=O)CCC43CF)C1CCC2=O (stereo not given)" category_label=False
compound="Oc1ccc2c3c1OC1[C@@H](O)CC[C@@]4(O)[C@@H](C2)N(CC2CCC2)CC[C@]314 (stereo not given in full)" category_label=False
compound=CC[S][Hg][Cl] category_label=False
compound=N#CC1(c2ccccc2)CCN(Cc2ccccc2)CC1 category_label=False
compound=C[n+]1c(/C=C/c2ccc(N(CCCl)CCCl)cc2)sc2ccccc21 category_label=False
compound="COc1cc(C=C2c3ccccc3C(=O)c3ccccc32)ccc1OCCCCOc1cc2c(cc1OC)C(=O)N1CCCC1C=N2 (stereo not given)" category_label=True
compound=CC(=O)Nc1ccc(NC(=O)c2ccc([As](O)O)cc2)cc1 category_label=False
compound=C[C@]12CC[C@H]3[C@@H](CC[C@]4(O)C[C@@H](O[C@@H]5O[C@H](CO)[C@@H](O[C@@H]6OC[C@@H](O)[C@H](O)[C@H]6O)[C@H](O)[C@H]5O)CC[C@]34C=O)[C@@]1(O)CC[C@@H]2C1=CC(=O)OC1 category_label=True
compound=CN1C(=O)C(=Cc2cn(CCCCCCn3c4ccccc4c(=O)c4ccccc43)c3ccccc23)C(=O)N(C)C1=O category_label=False
compound=CC(C)(NC(=O)O[C@@H]1CN2CCC1CC2)c1csc(-c2ccc(F)cc2)n1 category_label=False
compound="COc1cc(/C=N/C2=C(C#N)C(c3ccco3)c3c(c4cc(C)ccc4oc3=O)O2)cc(OC)c1OC (stereo not given)" category_label=False
compound=C[C@]12CCc3sc(-c4ccccc4O)nc3C1=CC[C@@H]1[C@@H]2CC[C@]2(C)C(=O)CC[C@@H]12 category_label=False
compound=COC(=O)[C@@H](C)C[C@H](Cc1ccccc1)NC(=O)c1csc([C@@H](C[C@H](C(C)C)N(C)C(=O)[C@H](C)NC(=O)[C@H]2CCCCN2C)OC(C)=O)n1 category_label=False
compound="CC(C)COC(C[N+](=O)[O-])C(Cl)(Cl)Cl (stereo not given)" category_label=False
compound=O=[N+]([O-])c1cc(I)cc([N+](=O)[O-])c1 category_label=False
compound=CCCCCCC(=O)NC1=C(N2CC2)C(=O)C(NC(=O)CCCCCC)=C(N2CC2)C1=O category_label=False
compound=CCCCCC1(CCBr)C(=O)NC(=O)NC1=O category_label=False
compound=CC[C@H](NC(=O)[C@H]1CCCCN1C)C(=O)N(C)[C@H](C[C@@H](OC(C)=O)c1nc(C(=O)N[C@@H](Cc2ccccc2)C[C@H](C)C(=O)O)cs1)C(C)C category_label=False
compound="O=C(O)C1C(C(=O)O)C2(Cl)C(Cl)=C(Cl)C1(Cl)C2(Cl)Cl.[Hg] (stereo not given)" category_label=False
compound=O=C1NC(=O)C(=Cc2cccn2CCCCCn2c3ccccc3c(=O)c3ccccc32)C(=O)N1 category_label=False
compound=O=C(O)C(Cl)(Cl)C(F)(F)F category_label=False
compound=Cc1ccc(C(=O)NCCCOc2ccc(N)cc2Cl)cc1S(=O)(=O)F category_label=False
compound=COc1ccc(/C=C\c2cc(OC)c(OC)c(OC)c2)c(NS(=O)(=O)c2ccc(C)cc2)c1O category_label=False
compound=C=C1C[C@](OC)([C@H](O)C(=O)N[C@@H](OC)[C@@H]2C[C@@H](O)C(C)(C)[C@@H](C[C@@H](COC)OC)O2)O[C@H](C)[C@@H]1C category_label=True
compound=Cn1cc(-c2csc(-c3cn(CCCCN4CCCCC4)c4ccccc34)n2)c2cccnc21 category_label=True

###

tested on: OVCAR-4 ovarian; experiment: NCI-60 one-dose screen, 48 h (100 = growth as untreated, 0 = no growth, -100 = all killed); details: 10 µM unless noted
About 83,000 compounds went through this panel and 20% of them were active in at least one assay; those are over-represented in the sample as a whole.
property label: growth (%)

molecule=CCOC(=O)c1c(C)n(Cc2ccccc2)c2cc(CN(C)C)c(O)cc12 property_label=growth unit_label=% measured_number=68.1
molecule=COc1cc2c(c(OC)c1OC)-c1ccc([O-])c(=O)cc1[C@@H](NC(C)=O)CC2.COc1cc2c(c(OC)c1OC)-c1ccc([O-])c(=O)cc1[C@@H](NC(C)=O)CC2.[Cu+2] property_label=growth unit_label=% measured_number=48.6
molecule=NC(CCl)CCl property_label=growth unit_label=% measured_number=102
molecule=CCCc1cc(O)c2c3c(c(=O)oc2c1)CN(C)CC3 property_label=growth unit_label=% measured_number=56.3
molecule=COC(=O)[C@@H](C)C[C@H](Cc1ccc(F)cc1)NC(=O)c1csc([C@@H](C[C@H](C(C)C)N(C)C(=O)[C@@H](NC(=O)[C@H]2CCCCN2C)C2CC2)OC(C)=O)n1 property_label=growth unit_label=% measured_number=46
molecule=COC(=O)[C@@H](C)C[C@H](Cc1ccccc1)NC(=O)c1csc([C@@H](C[C@H](C(C)C)N(C)C(=O)[C@@H](NC(=O)[C@H]2CCCCN2C)C(C(F)(F)F)C(F)(F)F)OC(C)=O)n1 property_label=growth unit_label=% measured_number=43.7
molecule=CC(=O)c1ccc(C(=O)NCC2CCC3(CC2)OOC2(CCCCC2)OO3)cc1 property_label=growth unit_label=% measured_number=75.4
molecule="CC(C)COC(C[N+](=O)[O-])C(Cl)(Cl)Cl (centres undefined)" property_label=growth unit_label=% measured_number=101
molecule=COc1cc(/C=C/[N+](=O)[O-])cc(OC)c1 property_label=growth unit_label=% measured_number=47.6
molecule=O=C1NC(=O)C(=Cc2ccc(OCCCCC3CCCCC3)c(Cl)c2)C(=O)N1 property_label=growth unit_label=% measured_number=105
molecule=CCOC(=O)N1CC1 property_label=growth unit_label=% measured_number=93.1
molecule="O=C(CC1(O)C(=O)Nc2ccccc21)c1ccc(C(=O)NCC2CCC3(CC2)OOC2(CCCCC2)OO3)cc1 (centres undefined)" property_label=growth unit_label=% measured_number=71.9
molecule=C[C@]12CCc3sc(NCCc4ccccc4)nc3C1=CC[C@@H]1[C@@H]2CC[C@]2(C)C(=O)CC[C@@H]12 property_label=growth unit_label=% measured_number=74.2
molecule=O=C(CCl)c1ccc([N+](=O)[O-])o1 property_label=growth unit_label=% measured_number=2.25
molecule=COc1ccc(S(=O)(=O)Nc2c(/C=C\c3cc(OC)c(OC)c(OC)c3)ccc(OC)c2O)cc1OC property_label=growth unit_label=% measured_number=43
molecule=COC(=O)[C@@H](C)C[C@H](Cc1ccccc1)NC(=O)c1cccc([C@@H](C[C@H](C(C)C)N(C)C(=O)[C@@H](NC(=O)[C@H]2CCCCN2C)C(C)C)OC(C)=O)n1 property_label=growth unit_label=% measured_number=38.9
molecule="Cc1ccc2c(C(C[N+](=O)[O-])c3cccs3)c(-c3ccccc3)[nH]c2c1 (centres undefined)" property_label=growth unit_label=% measured_number=38
molecule=COc1ccc(Nc2ccnc3cc(Cl)ccc23)cc1CN(CCCl)CCCl property_label=growth unit_label=% measured_number=-15.3
molecule=O=C(N/N=C/c1ccc(N(CCCl)CCCl)cc1)c1cccc2ccccc12 property_label=growth unit_label=% measured_number=88.5
